# STUDY TARGET: Human IP6K1 (Homo sapiens, UniProt Q92551)
# Construct: GST (N, cleaved yes); made in house; host or cells: C43 E. coli, pGEX-6P-2
# Sequence (Q92551 whole entry): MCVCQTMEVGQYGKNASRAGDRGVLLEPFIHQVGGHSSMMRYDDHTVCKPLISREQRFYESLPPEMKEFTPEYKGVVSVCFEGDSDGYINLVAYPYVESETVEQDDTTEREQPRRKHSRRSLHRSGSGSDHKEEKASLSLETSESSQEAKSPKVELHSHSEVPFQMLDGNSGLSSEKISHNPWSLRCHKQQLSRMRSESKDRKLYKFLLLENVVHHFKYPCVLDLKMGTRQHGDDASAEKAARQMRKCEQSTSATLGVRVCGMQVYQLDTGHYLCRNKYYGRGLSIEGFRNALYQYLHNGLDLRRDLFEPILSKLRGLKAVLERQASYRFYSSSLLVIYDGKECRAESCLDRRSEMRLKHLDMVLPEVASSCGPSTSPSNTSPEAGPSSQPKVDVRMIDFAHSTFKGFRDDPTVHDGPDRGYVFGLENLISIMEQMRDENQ
# MEASUREMENT PROTOCOL: IP6K1 high-throughput screen of the Sigma LOPAC (ADP-Glo Max, single point);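 also: final compound concentration 10µM in 5% DMSO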
# Format: biochemical
# STATED CONDITIONS: LOPAC single-point screen, ADP-Glo Max raw signal per well
Counter-ions that a name gives are not always drawn.
Examples of molecules with documented Raw Signal follow.

>  <MOLECULE>
NS(=O)(=O)c1cc(C(=O)O)c(NCc2ccco2)cc1Cl [Furosemide]

>  <Raw Signal>
53546

$$$$
>  <MOLECULE>
O=C(O)/C=C/c1ccc(O)c(O)c1

>  <Raw Signal>
56687

$$$$
>  <MOLECULE>
CCC1(c2ccc(N)cc2)CCC(=O)NC1=O (racemic) [(±)-p-Aminoglutethimide]

>  <Raw Signal>
58613

$$$$
>  <MOLECULE>
CN(C)c1cc2c(Nc3ccc4c(cnn4Cc4ccccc4)c3)ncnc2cn1

>  <Raw Signal>
53289

$$$$
>  <MOLECULE>
NCCSSCCN [Cystamine dihydrochloride]

>  <Raw Signal>
58178

$$$$
>  <MOLECULE>
CC(=O)C(C)=O

>  <Raw Signal>
53441

$$$$
